tested_target: T1, cynomolgus monkey OX40 protein (Novoprotein, #CB17) (cynomolgus monkey)
T1 construct: Bought recombinant protein; also called cyno OX40
experimental_protocol: BLI, antibody on ProA sensor, 1:1 global fit
parameter: koff (s⁻¹)
Report only the number, with the unit s⁻¹ understood.

Request: For the binder PR002077 (antibody, human IgG1, V domains shown, no light chain; also called anti-OX40 HCAb antibody) VH: EVQLLESGGGLVQPGGSLRLSCAASGFTFSSYAMSWVRQAPGKGLEWVSAISGRGNITFYADSVRGRFTISRDNSKNTLYLQMNSLRAEDTAVYYCANGITGTTDVDYWGQGTLVTVSS , report koff.
Result: 0.000722

Request: For the binder PR002066 (antibody, human IgG1, V domains shown, no light chain; also called anti-OX40 HCAb antibody) VH: EVQLLESGGGLVQPGGSLRLSCIASGFTFSSYAMSWVRQAPGKGLEWVSAISGRGGSTFYADSVRGRFTISRDNSKNTLYLQMNSLRAEDTAVYYCANGMTGTTDVDYWGQGTQVTVSS , report koff.
Result: 0.00097

Request: For the binder PR002067 (antibody, human IgG1, V domains shown, no light chain; also called anti-OX40 HCAb antibody) VH: EVQLLESGGGLVQPGGSLRLSCAASGFTFSSYAMSWVRQAPGKGLEWVSAISGRGGSTFYADSVRGRFTISRDNSKNTLYLQMNSLRAEDTAMYYCVDGTTGTTDVDYWGQGTLVTVSS , report koff.
Result: 0.000475
